system: P388 leukemia ip, CD2F1 mice, survival T/C; test: NCI In Vivo Anticancer Drug Screen. Data for tumor model P388 Leukemia (intraperitoneal) in CD2F1 (CDF1) mice; details: endpoint: median survival time; dose: 30.0 mg/kg/injection; schedule: Q01DX005 (ip); vehicle: Klucel (hydroxypropylcellulose) (HPC); higher = longer survival
Toxic doses and inconclusive results are not listed.
Measured T/C accompanies every entry in the list below.

Query string: Assign T/C to the following record: COc1cc2c(cc1OC)C13CC(=O)N(C(C)=O)N1CCCN3C2=O (configuration not stated)
Result string: 106 % of control

====

The entries below come with measured T/C values attached.
tested on: P388 leukemia ip, CD2F1 mice, survival T/C; test: NCI In Vivo Anticancer Drug Screen. Data for tumor model P388 Leukemia (intraperitoneal) in CD2F1 (CDF1) mice; conditions: endpoint: median survival time; dose: 30.0 mg/kg/injection; schedule: Q01DX005 (ip); vehicle: saline with Tween-80; higher = longer survival
Inconclusive results and toxic doses are left out.

Some compounds with recorded T/C:
| Compound | T/C |
| --- | --- |
| COc1cccc2c1C(=O)c1c(O)c(CCl)cc(OC)c1C2=O | 114 % of control |
| COc1cc(C2CC(C)(OC)Oc3cc4c(cc32)OCO4)cc(OC)c1O (configuration not stated) | 88 % of control |
| CCOc1ccccc1NC1=C(Cl)C(=O)c2ccccc2C1=O | 97 % of control |
| CCOC(=O)c1ccc(N(CC(O)CN)S(=O)(=O)c2ccc(C)cc2)cc1 (configuration not stated) | 101 % of control |
| Cc1nnc2c3nccnc3c(Cl)nn12 | 112 % of control |

Query string: Fill in T/C for record `Cc1ccc(Nc2ncnc3c2c(=O)n(C)c(=O)n3C)cc1`
Result string: 88 % of control

Query string: Dear colleague, please send me the reported T/C for `c1nnc(NC(Nc2nncs2)C2CCCCC2)s1` when you can.
Result string: 98 % of control

====

test system: P388 leukemia ip, CD2F1 mice, survival T/C; assay: NCI In Vivo Anticancer Drug Screen. Data for tumor model P388 Leukemia (intraperitoneal) in CD2F1 (CDF1) mice; conditions: endpoint: median survival time; dose: 12.5 mg/kg/injection; schedule: Q01DX009 (ip); vehicle: saline with Tween-80; higher = longer survival
Inconclusive results and toxic doses are left out.
Property: T/C

Worked examples, 5 compounds total:
| Compound | T/C |
| --- | --- |
| C=C(C)C(=NC(C)(C)C)Nc1ccccc1 | 116 % of control |
| CSC(=CC(=O)c1ccccc1)SC | 104 % of control |
| CC1C(=O)CCC2(C)C1CCC1C3CCC(O)C3(C)CCC12 (stereo not given) | 95 % of control |
| Cc1c(N)ccc(O)c1C | 120 % of control |
| OCC1C=CCC1 (stereo not given) | 101 % of control |

Query string: Please report the measured T/C for CCCC(C#N)OC(=O)c1ccccc1 (stereo not given)
Result string: 104 % of control

Query string: Using the record for CC1(C)OC2C(COC(=O)c3ccc([N+](=O)[O-])cc3)OC(NC(=O)N(CCCl)N=O)C2O1 (stereo not given) , state its measured T/C.
Result string: 202 % of control

====

tested on: P388 leukemia ip, CD2F1 mice, survival T/C; test: NCI In Vivo Anticancer Drug Screen. Data for tumor model P388 Leukemia (intraperitoneal) in CD2F1 (CDF1) mice; conditions: endpoint: median survival time; dose: 25.0 mg/kg/injection; schedule: Q01DX009 (ip); vehicle: Klucel (hydroxypropylcellulose) (HPC)
Toxic doses and inconclusive results are not listed. How the source made its calls: active means survival T/C of 150% or more; inactive means T/C below 125% in these data.
Mark one answer only. Choices: class 1 = active, class 0 = inactive

Known results for compounds:
| Compound | Category |
| --- | --- |
| CC(=O)OC(C(=O)N1CC1)C(OC(C)=O)C(OC(C)=O)C(OC(C)=O)C(=O)N1CC1 (stereo not drawn) | class 1 |
| CCCCCCCCN1CSC(=S)N(c2ccc3[nH]c(=S)sc3c2)C1 | class 0 |
| Cc1nc2sccn2c1C=O | class 0 |
| Cc1ccc(NC(=S)SCc2ccc3c(c2)OCO3)cc1Br | class 0 |
| NC(=O)c1ncn(C2OC(CO)C(O)C2O)c1O (stereo not drawn) | class 0 |

Query string: For OC(CNC1CC2CCC1C2)COc1cccc2ccccc12 (stereo not drawn) , what call appears in the results of this test?
Result string: class 0

Query string: For `C[n+]1cc2ccccc2cc1CC(=S)[S-]` , which call appears in the assay record?
Result string: class 0

Query string: Entry Cc1c(N)nc([C@H](CC(N)=O)NC[C@H](N)C(N)=O)nc1C(=O)N[C@H](C(=O)N[C@H](C)[C@@H](O)[C@H](C)C(=O)N[C@H](C(=O)NCCc1nc(-c2nc(C(=O)NCCC[S+](C)C)cs2)cs1)[C@@H](C)O)C(OC1OC(CO)C(O)C(O)C1OC1OC(CO)C(O)C(OC(N)=O)C1O)c1cnc[nH]1 (stereo partly drawn) : call = ?
Result string: class 0

Query string: Hello, I am checking results. What call was entered for `CCCCCCCCCCCCN1CCS(=O)(=O)CC1` ?
Result string: class 0

Query string: Could you kindly confirm the outcome this assay logged for `Clc1cc(Cl)c(Cl)nn1` ?
Result string: class 0

Query string: Can you look up the reported call for CCOC(=O)C(CC)Oc1cccc2c1oc1ccccc12 (stereo not drawn) for me?
Result string: class 0

Query string: Recorded test call requested for `OCc1nc2ccccc2[nH]1`
Result string: class 0

Query string: Please let me know the test result on file for `CCCCCCCCSc1nc2ccc(N=Cc3ccccc3O)cc2s1` .
Result string: class 0
